- System: 425362-245-T-J1 tumor spheroids, viability % test/control;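 note: spheroids exposed to agents for 7 days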
- TEST_METHOD_NOTES: Anticancer human tumor 425362-245-T-J1 patient-derived melanoma cell line growth inhibition; active = viability on the fitted dose curve at most 10% of control; inactive = the rest
- CONDITIONS_USED: second compound 100 µM; first compound 0.316 µM; spheroids with HUVEC and MSC
Would you mind answering with one of these outcomes? TRUE (active), FALSE (inactive)

Completed entries (count: 5):
COc1cc(C)[nH]c(=O)c1CN1CCc2c(Cl)cc(C(OC)C3COC3)c(Cl)c2C1=O (stereo unspecified) + Cn1nnc2c(C(N)=O)ncn2c1=O : FALSE
COc1ccc([C@@H](O)c2cc(-c3ncnc4cc(N5CCOCC5)ccc34)c(F)cc2Cl)nn1 + Cn1nnc2c(C(N)=O)ncn2c1=O : FALSE
Cc1cc(C)c(CNC(=O)c2cc(-c3ccc(CN4CCOCC4)cc3)cc3c2cnn3C2CCCC2)c(=O)[nH]1 + Cn1nnc2c(C(N)=O)ncn2c1=O : FALSE
CC(C)n1c(=O)n(C)c2cnc3cc(F)c(-c4ccc(OCCCN5CCCCC5)nc4)cc3c21 + Cn1nnc2c(C(N)=O)ncn2c1=O : FALSE
[2H]c1nc(C)nc([2H])c1-c1cc(NC[C@@H](C)c2cccc3c(C(=O)NC)ccnc23)ncn1 + Cn1nnc2c(C(N)=O)ncn2c1=O : FALSE

Now look at this entry.
Could you kindly confirm the outcome this assay logged for CC1COCCN1c1cc(-c2ccnn2C)c2ccnc(-c3ccn[nH]3)c2n1 (stereo unspecified) + Cn1nnc2c(C(N)=O)ncn2c1=O ?
TRUE
